Target of assay: Human Fc (human)
Experiment notes: ELISA, negative control
Entries annotated with measured optical density
Metric: optical density (OD)

{"Binder": "370_A03 (antibody, V domains shown) VH: EVQLLESGGGLVQPGGSLRLSCAASGFTFSSYSMNWVRQAPGKGLEWVSNINYNGGYTSYADSVKGRFTISRDNSKNTLYLQMNSLRAEDTAVYYCARSANWHDTALDYWGQGTLVTVSS VL: DIQMTQSPSSLSASVGDRVTITCRASQSILSYLNWYQQKPGKAPKLLIYAATSRASGVPSRFSGSGSGTDFTLTISSLQPEDFATYYCQQSYDSPLTFGGGTKVEIK", "Number": 0.424}
{"Binder": "369_F10 (antibody, V domains shown) VH: EVQLLESGGGLVQPGGSLRLSCAASGFTFDSYGMNWVRQAPGKGLEWVSNINYNSGYKSYADSVKGRFTISRDNSKNTLYLQMNSLRAEDTAVYYCARSANWHDTALDYWGQGTLVTVSS VL: DIQMTQSPSSLSASVGDRVTITCRASQSIVTYLNWYQQKPGKAPKLLIYAVTSRASGVPSRFSGSGSGTDFTLTISSLQPEDFATYYCQQSYDLPLTFGGGTKVEIK", "Number": 0.361}
{"Binder": "369_B01 (antibody, V domains shown) VH: EVQLLESGGGLVQPGGSLRLSCAASGFTFSSYSMNWVRQAPGKGLEWVSGINYNGGYTSYADSVKGRFTISRDNSKNTLYLQMNSLRAEDTAVYYCARSANWHDTALDYWGQGTLVTVSS VL: DIQMTQSPSSLSASVGDRVTITCRASQSILSYLNWYQQKPGKAPKLLIYAVTSRASGVPSRFSGSGSGTDFTLTISSLQPEDFATYYCQQSYENPLTFGGGTKVEIK", "Number": 0.487}
{"Binder": "372_F03 (antibody, V domains shown) VH: EVQLLESGGGLVQPGGSLRLSCAASGFTFSSYGMNWVRQAPGKGLEWVAGINYNGGYTSYADSVKGRFTISRDNSKNTLYLQMNSLRAEDTAVYYCARSANWHDTALDYWGQGTLVTVSS VL: DIQMTQSPSSLSASVGDRVTITCRASQSILSYLNWYQQKPGKAPKLVIYAATSRASGVPSRFSGSGSGTDFTLTISSLQPEDFATYYCQQSYDTPLTFGGGTKVEIK", "Number": 0.438}
{"Binder": "368_D04 (antibody, V domains shown) VH: EVQLLESGGGLVQPGGSLRLSCAASGFTFSSYGMNWVRQAPGKGLEWVSGINYNGGYKSYADSVKGRFTISRDNSKNTLYLQMNSLRAEDTAVYYCARSANWHDTALDYWGQGTLVTVSS VL: DIQMTQSPSSLSASVGDRVTITCRASQSISTYVNWYQQKPGKAPKLVIYAVTSRHSGVPSRFSGSGSGTDFTLTISSLQPEDFATYYCQQSYDSPLTFGGGTKVEIK", "Number": 0.338}
{"Binder": "373_B12 (antibody, V domains shown) VH: EVQLLESGGGLVQPGGSLRLSCAASGFTFDSYGMNWVRQAPGKGLEWVSSINYNSGYTSYADSVKGRFTISRDNSKNTLYLQMNSLRAEDTAVYYCARSANWHDTALDYWGQGTLVTVSS VL: DIQMTQSPSSLSASVGDRVTITCRASQSIVSYVNWYQQKPGKAPKLLIYAATSRASGVPSRFSGSGSGTDFTLTISSLQPEDFATYYCQQSYDSPLTFGGGTKVEIK", "Number": 0.172}
{"Binder": "371_A07 (antibody, V domains shown) VH: EVQLLESGGGLVQPGGSLRLSCAASGFTFSDYSMNWVRQAPGKGLEWVSNINYNGGYKSYADSVKGRFTISRDNSKNTLYLQMNSLRAEDTAVYYCARSANWHDTALDYWGQGTLVTVSS VL: DIQMTQSPSSLSASVGDRVTITCRASQSILSYLNWYQQKPGKAPKLVIYATTSRASGVPSRFSGSGSGTDFTLTISSLQPEDFATYYCQQSYDLPLTFGGGTKVEIK", "Number": 0.336}
{"Binder": "371_B06 (antibody, V domains shown) VH: EVQLLESGGGLVQPGGSLRLSCAASGFTFDSYSMNWVRQAPGKGLEWVAGINYNGGYKSYADSVKGRFTISRDNSKNTLYLQMNSLRAEDTAVYYCARSANWHDTALDYWGQGTLVTVSS VL: DIQMTQSPSSLSASVGDRVTITCRASQSILTYVNWYQQKPGKAPKLVIYAATSRHSGVPSRFSGSGSGTDFTLTISSLQPEDFATYYCQQSYNLPLTFGGGTKVEIK", "Number": 0.356}
{"Binder": "371_H09 (antibody, V domains shown) VH: EVQLLESGGGLVQPGGSLRLSCAASGFTFDSYSMNWVRQAPGKGLEWVSNINYNGGYTSYADSVKGRFTISRDNSKNTLYLQMNSLRAEDTAVYYCARSANWHDTALDYWGQGTLVTVSS VL: DIQMTQSPSSLSASVGDRVTITCRASQSILTYVNWYQQKPGKAPKLVIYAATSLASGVPSRFSGSGSGTDFTLTISSLQPEDFATYYCQQSYDSPLTFGGGTKVEIK", "Number": 0.32}
{"Binder": "370_G03 (antibody, V domains shown) VH: EVQLLESGGGLVQPGGSLRLSCAASGFTFSSYSMNWVRQAPGKGLEWVANINYNGGYTGYADSVKGRFTISRDNSKNTLYLQMNSLRAEDTAVYYCARSANWHDTALDYWGQGTLVTVSS VL: DIQMTQSPSSLSASVGDRVTITCRASQSILTYVNWYQQKPGKAPKLVIYATTSRASGVPSRFSGSGSGTDFTLTISSLQPEDFATYYCQQSYNNPLTFGGGTKVEIK", "Number": 0.421}
